- Experiment Description: HPLC-MS/MS quantification of 9 compounds in plasma of RSV-infected mice after Scutellaria baicalensis Georgi administration
- Format: in vivo, BALB/c mice
- Design: unit not given here
- Details: RSV-infected mice; 10 h after last gavage of Scutellaria baicalensis Georgi extract; mean ± SD, n = 6
Value Type: drug-containing plasma content
// return just the number, without any unit appended

So for COc1c(O)cc2oc(-c3ccccc3)cc(=O)c2c1O , the logged drug-containing plasma content turned out to be 19.18

For COc1c(OC2OC(C(=O)O)C(O)C(O)C2O)cc2oc(-c3ccccc3)cc(=O)c2c1O [Oroxylin A 7-O-beta-D-glucuronide] the compound record lists drug-containing plasma content as 160.51

// recorded drug-containing plasma content for O=c1cc(-c2ccccc2)oc2cc(O)cc(O)c12 : 0
